Biological target: Thrombin (bovine) (Bos taurus, UniProt P00735)
Construct: Thrombin (bovine)
Test: Enzyme kinetic determination of Ki with chromogenic substrate, thrombin
Assay type: biochemical
Details: bovine thrombin, Tris buffer pH 8.0, 25° C., Pefachrome tPA; read-out: Ki (nM) Thrombin
Property: Ki (nM)
Quick reminder: number only, in nM, skip the unit.

Past entries and their recorded results:
For the compound COC(=O)CC[C@H](NC(=O)C(CCc1cccc[n+]1[O-])NS(=O)(=O)Cc1ccccc1)C(=O)NCc1cc(Cl)ccc1CN (stereo partly drawn) , what Ki is on record?
350

Consider next the compound COC(=O)c1ccc(CS(=O)(=O)NC(CCc2cccc[n+]2[O-])C(=O)NCC(=O)NCc2cc(Cl)ccc2CN)cc1 (stereo not drawn) in the same way.
360

Others:
For the compound NCc1ccc(Cl)cc1CNC(=O)[C@H](CO)NC(=O)[C@@H](CCc1ccccn1)NS(=O)(=O)Cc1ccc(CC(=O)O)cc1 , what Ki is on record?
210

====

Target: Human plasmin (Homo sapiens)
Construct: Human plasmin (CHROMOGENIX, Milano, Italy); purchased CHROMOGENIX, Milano, Italy
Sequence (P00747 581-810 limits assumed): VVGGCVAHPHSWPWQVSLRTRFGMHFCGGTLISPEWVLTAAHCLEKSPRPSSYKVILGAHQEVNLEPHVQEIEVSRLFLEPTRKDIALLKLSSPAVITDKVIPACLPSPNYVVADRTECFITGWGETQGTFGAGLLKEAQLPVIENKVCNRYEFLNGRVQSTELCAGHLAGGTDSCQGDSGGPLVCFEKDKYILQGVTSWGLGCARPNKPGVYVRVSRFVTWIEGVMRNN
Sequence (P00747 97-580 limits assumed): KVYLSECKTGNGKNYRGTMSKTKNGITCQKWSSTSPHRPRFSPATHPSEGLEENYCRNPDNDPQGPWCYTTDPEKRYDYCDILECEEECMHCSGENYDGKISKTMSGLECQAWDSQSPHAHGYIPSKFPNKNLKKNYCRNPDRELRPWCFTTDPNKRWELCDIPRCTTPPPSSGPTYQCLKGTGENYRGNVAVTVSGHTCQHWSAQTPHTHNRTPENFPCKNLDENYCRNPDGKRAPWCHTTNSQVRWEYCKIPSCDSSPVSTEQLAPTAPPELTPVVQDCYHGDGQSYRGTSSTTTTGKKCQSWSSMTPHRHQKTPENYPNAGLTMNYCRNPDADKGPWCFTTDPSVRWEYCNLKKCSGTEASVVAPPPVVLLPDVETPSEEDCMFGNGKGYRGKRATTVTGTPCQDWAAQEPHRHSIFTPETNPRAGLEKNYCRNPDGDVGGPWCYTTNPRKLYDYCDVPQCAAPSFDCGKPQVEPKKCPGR
Experiment: Enzyme kinetic determination of Ki with chromogenic substrate, plasmin
Format: biochemical
Settings: Tris buffer pH 8.0, 25° C., Chromozym PL
Below: a set of entries, each annotated with reported Ki.
Quick reminder: number only, in nM, skip the unit.

For the compound C[C@H](NC(=O)[C@@H](CCc1cccc[n+]1[O-])NS(=O)(=O)Cc1ccccc1)C(=O)NCc1cc(Cl)ccc1CN [Inhibitor 10] , what Ki is on record?
85000

Consider next the compound CC(C)OC(=O)CS(=O)(=O)NC(CCc1ccccn1)C(=O)NCC(=O)NCc1cc(Cl)ccc1CN (stereo not shown) [Inhibitor 30] in the same way.
290000

Consider next the compound NCc1ccc(Cl)cc1CNC(=O)[C@@H]1CCCN1C(=O)[C@@H](CCc1cccc[n+]1[O-])NCC(=O)O [Inhibitor 35] in the same way.
100000

Others:
For the compound CCOC(=O)CN[C@H](CCc1cccc[n+]1[O-])C(=O)N1CCC[C@H]1C(=O)NCc1cc(Cl)ccc1CN [Inhibitor 33] , what Ki is on record?
240000

Consider next the compound COC(=O)c1ccc(CS(=O)(=O)NC(CCc2cccc[n+]2[O-])C(=O)NCC(=O)NCc2cc(Cl)ccc2CN)cc1 (stereo not shown) [Inhibitor 20] in the same way.
140000

Consider next the compound NCc1ccc(Cl)cc1CNC(=O)CNC(=O)[C@H](O)CCc1ccccc1 [Inhibitor 8] in the same way.
540000

====

Molecular target: Human factor Xa (Homo sapiens, UniProt P00742)
Construct: Human factor Xa (Enzyme Research Lab., purchased from Haemochrom Diagnostica GmbH, Essen); purchased Enzyme Research Lab; (via Haemochrom Diagnostica GmbH, Essen)
Sequence (P00742 235-488 limits assumed): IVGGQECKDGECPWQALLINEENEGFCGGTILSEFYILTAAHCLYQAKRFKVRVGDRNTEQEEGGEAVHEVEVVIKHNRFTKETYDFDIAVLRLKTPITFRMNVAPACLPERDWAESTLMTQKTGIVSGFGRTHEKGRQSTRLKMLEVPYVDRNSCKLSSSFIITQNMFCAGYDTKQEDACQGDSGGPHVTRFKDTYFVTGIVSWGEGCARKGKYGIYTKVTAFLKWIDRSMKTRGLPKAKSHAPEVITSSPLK
Sequence (P00742 41-179 limits assumed): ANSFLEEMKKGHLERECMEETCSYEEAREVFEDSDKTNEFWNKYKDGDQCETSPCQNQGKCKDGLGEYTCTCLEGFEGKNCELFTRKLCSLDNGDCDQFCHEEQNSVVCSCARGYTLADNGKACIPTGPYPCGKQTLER
Assay: Enzyme kinetic determination of Ki with chromogenic substrate, factor Xa
Type: biochemical
Details: Tris buffer pH 8.0, 25° C., Pefachrome Xa, read-out: Ki (nM) FXa
Procedure: The inhibitory effect of the inhibitors for factor Xa, thrombin and plasmin were estimated using specific synthetic chromogenic substrates. […] The inhibitor was dissolved in Tris buffer, the substrates (all Pentapharm Ltd., Basel, CH) in water. […] Three different substrate concentrations and five different inhibitor concentrations were measured in each case. The following enzymes and substrates were used for the measurements: […]
Property: Ki
Please append the unit to your numeric answer.

Past entries and their recorded results:
For the compound NCc1ccc(Cl)cc1CNC(=O)CNC(=O)C(CCc1ccccn1)NS(=O)(=O)Cc1cccnc1 (stereo not shown) , what Ki is on record?
0.34 nM

Consider next the compound CCOC(=O)CN[C@H](CCc1cccc[n+]1[O-])C(=O)N1CCC[C@H]1C(=O)NCc1cc(Cl)ccc1CN in the same way.
0.4 nM

Consider next the compound NCc1ccc(Cl)cc1CNC(=O)[C@H](CO)NC(=O)[C@@H](CCc1cccc[n+]1[O-])NS(=O)(=O)Cc1ccc(CC(=O)O)cc1 in the same way.
0.18 nM

Others:
For the compound COC(=O)c1ccc(CS(=O)(=O)NC(CCc2cccc[n+]2[O-])C(=O)NCC(=O)NCc2cc(Cl)ccc2CN)cc1 (stereo not shown) , what Ki is on record?
0.3 nM

Attribution: patent US8124587B2
